These entries and their values trace back to the supplement of paper PMC7125110.

B1: glmS ribozyme (parent)
chain: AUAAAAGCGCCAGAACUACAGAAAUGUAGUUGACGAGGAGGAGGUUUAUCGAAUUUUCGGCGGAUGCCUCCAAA

# Variants of: B1
# protocol.text: self-cleavage kobs at 40 uM GlcN6P; higher = faster cleavage; RNA array
# condition.info: with glucosamine-6-phosphate
Variants at the floor of the assay were thinned out.
value.kind: self-cleavage kobs at 40 uM GlcN6P

Record excerpt, results attached:
| mutant.id | self-cleavage kobs at 40 uM GlcN6P |
| --- | --- |
| G29U G32C | < 1e-05 s⁻¹ |
| U46A U54G | 8.77e-05 s⁻¹ |

input: Looking for the measured self-cleavage kobs at 40 uM GlcN6P of U30G G59C , can you help?
output: < 1e-05 s⁻¹

input: Another: G13U C68A C70G
output: < 1e-05 s⁻¹
